These entries and their values trace back to paper PMC4076284.

system: Lys430Ala-ERRγ mutant receptor (GST-fused LBD) (Homo sapiens, UniProt P62508, K430A)
Sequence (P62508 222-458 K430A): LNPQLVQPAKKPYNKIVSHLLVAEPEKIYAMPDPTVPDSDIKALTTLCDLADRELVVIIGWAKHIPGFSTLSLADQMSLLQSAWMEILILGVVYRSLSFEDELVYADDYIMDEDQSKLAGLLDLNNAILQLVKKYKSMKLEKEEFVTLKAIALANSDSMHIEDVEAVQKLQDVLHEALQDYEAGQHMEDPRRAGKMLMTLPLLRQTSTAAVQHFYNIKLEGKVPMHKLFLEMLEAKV
assay overview: biochemical
quantity name: IC50 (nM)
The answer is to be given in nM; state only the numeric part.

## Input Returns the measured IC50 for the input compound. Input: CC(C)(c1ccc(O)cc1)c1ccc(O)cc1 [BPA, bisphenol A]
## Output 9.7

----------
system: Asn346Tyr-ERRγ mutant receptor (GST-fused LBD) (Homo sapiens, UniProt P62508, N346Y)
Construct: wild-type ERRγ-LBD encoding 222-458 residues; made in house; host or cells: E. coli BL21
Sequence (P62508 222-458 N346Y): as the sequence (P62508 222-458 K430A) above, with N125Y, A209K counted along it
assay overview: Competitive binding assay using [^3H]BPA
test conditions: read-out: Receptor binding potency IC50
quantity name: pIC50
Notebook: values listed as pIC50 are -log10 of the concentration (mol/L).

## Input What does the record list as pIC50 for CC(C)(c1ccc(O)cc1)c1ccc(O)cc1 ?
## Output 7.34

----------
system: Tyr330Ala-ERRγ mutant receptor (GST-fused LBD) (Homo sapiens, UniProt P62508, Y330A)
Construct: wild-type ERRγ-LBD encoding 222-458 residues was generated by PCR
Sequence (P62508 222-458 Y330A): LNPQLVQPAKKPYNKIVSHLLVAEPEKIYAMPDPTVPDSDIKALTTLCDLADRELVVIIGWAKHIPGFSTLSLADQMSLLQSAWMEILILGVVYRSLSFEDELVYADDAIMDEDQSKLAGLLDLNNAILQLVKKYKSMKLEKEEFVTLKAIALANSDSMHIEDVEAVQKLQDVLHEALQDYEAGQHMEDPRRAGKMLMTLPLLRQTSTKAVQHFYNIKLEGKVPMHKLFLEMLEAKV
assay overview: Competitive binding assay using [^3H]BPA
test conditions: read-out: Receptor binding potency IC50
quantity name: IC50 (nM)
Reply with just the number (in nM).

## Input For CC(C)(c1ccc(O)cc1)c1ccc(O)cc1 , what is its reported IC50?
## Output 361

----------
system: Ile349Leu-ERRγ mutant receptor (GST-fused LBD) (Homo sapiens, UniProt P62508, I349L)
Sequence (P62508 222-458 I349L): as the sequence (P62508 222-458 Y330A) above, with A109Y, I128L counted along it
assay overview: biochemical
quantity name: IC50

## Input Query: IC50; subject: CC(C)(c1ccc(O)cc1)c1ccc(O)cc1
## Output 10.4 nM

----------
system: GST-fused wild-type ERRγ-LBD (Homo sapiens, UniProt P62508)
assay overview: biochemical
test conditions: Receptor binding potency IC50, wild-type ERRγ (Table 2); [^3H]BPA 5 nM, 4°C, 2 h
quantity name: IC50 (nM)
Give a bare numeral; the unit nM is implied.

## Input Which IC50 is listed for CC(C)(c1ccc(O)cc1)c1ccc(O)cc1 [BPA, bisphenol A] ?
## Output 4.96
